Molecular target: Taste receptor type 2 member 14 (Homo sapiens, UniProt Q9NYV8)
Sequence (Q9NYV8 whole entry): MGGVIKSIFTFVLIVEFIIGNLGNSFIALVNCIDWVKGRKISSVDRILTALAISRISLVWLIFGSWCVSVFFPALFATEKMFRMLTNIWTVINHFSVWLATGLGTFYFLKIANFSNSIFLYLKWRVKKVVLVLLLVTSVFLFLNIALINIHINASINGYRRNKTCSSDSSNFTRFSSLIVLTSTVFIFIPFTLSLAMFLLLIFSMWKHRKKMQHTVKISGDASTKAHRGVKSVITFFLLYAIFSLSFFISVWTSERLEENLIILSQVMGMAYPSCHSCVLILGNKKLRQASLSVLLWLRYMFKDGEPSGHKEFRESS
Assay: Partial agonist activity at human TAS2R14 transfected in HEK293T cells assessed as IP1 accumulation measured after 150 mins by IP1 accumulation assay
Assay type: cell-based
observable: pEC50
Interpret pEC50 as the negative base-10 log of the concentration measured in mol/L.

Notebook: FC(F)(F)c1cc(Nc2ccccc2-c2nnn[nH]2)cc(C(F)(F)F)c1 , pEC50 read as 7.00

* * *

Biological target: D(3) dopamine receptor (Homo sapiens, UniProt P35462)
Sequence (P35462 whole entry): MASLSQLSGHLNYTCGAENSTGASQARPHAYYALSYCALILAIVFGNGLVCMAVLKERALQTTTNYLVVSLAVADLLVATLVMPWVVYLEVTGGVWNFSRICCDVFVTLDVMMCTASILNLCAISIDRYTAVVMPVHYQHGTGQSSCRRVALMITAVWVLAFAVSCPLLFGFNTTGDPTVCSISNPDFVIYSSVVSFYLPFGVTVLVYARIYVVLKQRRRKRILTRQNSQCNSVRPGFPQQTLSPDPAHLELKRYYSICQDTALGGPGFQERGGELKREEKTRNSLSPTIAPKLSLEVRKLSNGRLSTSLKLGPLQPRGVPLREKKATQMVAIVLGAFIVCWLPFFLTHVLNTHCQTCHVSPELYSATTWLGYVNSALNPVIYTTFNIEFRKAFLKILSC
observable: Ki (nM)
Number only, in nM; omit the unit.

Tested on D(3) dopamine receptor (Homo sapiens, UniProt P35462), the item Cc1cc(C(F)(F)F)nc(Nc2ccccc2-c2nnn[nH]2)n1 showed Ki equal to 1100

These measurements were taken from ChEMBL document CHEMBL5247646.
